Measured Kd values are reported for all entries that follow.
biological target: soluble H-2K^b (soluble extracellular domains); heavy chain residues 1-274 with C-terminal His-tag and … (mouse); assay: inhibition assay with soluble H-2K^b, 37° C.
Expressed in µM, but write only the number.

Sample records with Kd:
Which Kd value belongs to SAPDFRPA (Synthetic peptide) [MUC1-8-5F (SAPDFRPA)] ? 4.9

Lookup SAPDTRPA (Synthetic peptide, purity >95%; also called MUC1-8 peptide; parent non-canonical peptide MUC1-8) [MUC1-8 (SAPDTRPA)] 37

One more binder: SAPDTRPL (Synthetic peptide) [MUC1-8-8L (SAPDTRPL)] 8.9

Now consider the entry below.
Name the recorded Kd for SAPDFRPL (Synthetic peptide) [MUC1-8-5F8L (SAPDFRPL)] . 0.3
